Reported Allergenic potency (Prel) 50% values for the following molecules.
Tested on: IgE antibodies of allergic patients
Assay: EAST inhibition test (IgE reactivity / allergenicity)
Type: binding, human
Conditions: relative to native Phl p 5b at 50% inhibition; individual serum II/17
Please respond with just the number, no unit label.

Consider the following illustrative entries.
{"molecule": "n Phl p 5b: purified natural allergen Phl p 5b of timothy grass (Phleum pratense), reference of the EAST inhibition (protein) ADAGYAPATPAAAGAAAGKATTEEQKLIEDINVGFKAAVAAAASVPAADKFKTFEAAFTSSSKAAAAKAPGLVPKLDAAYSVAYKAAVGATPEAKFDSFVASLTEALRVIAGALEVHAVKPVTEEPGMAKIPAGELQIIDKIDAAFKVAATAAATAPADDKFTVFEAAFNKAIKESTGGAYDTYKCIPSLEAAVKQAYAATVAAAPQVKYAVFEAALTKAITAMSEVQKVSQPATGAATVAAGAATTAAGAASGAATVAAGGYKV", "Allergenic potency (Prel) 50%": 1.000}
{"molecule": "rPhl p 5b point mutant PM1 (N32D, D49L, K50A) (protein) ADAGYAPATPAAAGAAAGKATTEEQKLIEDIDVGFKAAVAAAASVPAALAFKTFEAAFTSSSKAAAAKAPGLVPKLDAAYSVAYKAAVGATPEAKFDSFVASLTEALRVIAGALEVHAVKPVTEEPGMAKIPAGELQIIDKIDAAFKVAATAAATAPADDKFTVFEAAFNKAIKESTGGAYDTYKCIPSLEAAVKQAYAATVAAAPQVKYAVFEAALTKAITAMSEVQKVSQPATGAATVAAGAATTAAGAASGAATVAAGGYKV", "Allergenic potency (Prel) 50%": 0.1190}
{"molecule": "r Phl p 5b: recombinant wild type Phl p 5b, 265 amino acids, SEQ ID NO 87 (protein) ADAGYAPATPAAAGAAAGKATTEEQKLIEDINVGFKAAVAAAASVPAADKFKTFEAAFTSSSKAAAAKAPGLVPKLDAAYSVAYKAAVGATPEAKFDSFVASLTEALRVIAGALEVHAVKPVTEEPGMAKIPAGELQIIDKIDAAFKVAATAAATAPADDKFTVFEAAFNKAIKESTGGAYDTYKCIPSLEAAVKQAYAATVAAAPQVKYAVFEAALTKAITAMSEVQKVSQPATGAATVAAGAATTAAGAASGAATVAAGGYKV", "Allergenic potency (Prel) 50%": 0.5450}
{"molecule": "DM1: deletion mutant of rPhl p 5b (ΔK50-P132, D49→L), SEQ ID NO 91 (protein) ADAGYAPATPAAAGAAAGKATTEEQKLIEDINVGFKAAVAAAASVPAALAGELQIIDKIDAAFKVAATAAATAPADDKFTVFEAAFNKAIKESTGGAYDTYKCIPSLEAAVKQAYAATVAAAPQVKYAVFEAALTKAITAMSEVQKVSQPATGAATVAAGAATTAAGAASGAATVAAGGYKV", "Allergenic potency (Prel) 50%": 0.0010}
{"molecule": "rPhl p 5b deletion mutant DM3 (deletion A154-T177, A220T) (protein) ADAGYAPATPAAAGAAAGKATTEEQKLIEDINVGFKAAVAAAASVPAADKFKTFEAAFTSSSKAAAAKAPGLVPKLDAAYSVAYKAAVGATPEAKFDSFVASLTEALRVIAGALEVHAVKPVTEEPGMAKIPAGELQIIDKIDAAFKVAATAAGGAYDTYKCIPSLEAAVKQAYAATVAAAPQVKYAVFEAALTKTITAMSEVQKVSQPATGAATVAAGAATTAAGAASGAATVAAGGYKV", "Allergenic potency (Prel) 50%": 0.0005}

In the following, a different molecule is considered.
*Q* Given the entry rPhl p 5b point mutant PM3 (A13C) (protein) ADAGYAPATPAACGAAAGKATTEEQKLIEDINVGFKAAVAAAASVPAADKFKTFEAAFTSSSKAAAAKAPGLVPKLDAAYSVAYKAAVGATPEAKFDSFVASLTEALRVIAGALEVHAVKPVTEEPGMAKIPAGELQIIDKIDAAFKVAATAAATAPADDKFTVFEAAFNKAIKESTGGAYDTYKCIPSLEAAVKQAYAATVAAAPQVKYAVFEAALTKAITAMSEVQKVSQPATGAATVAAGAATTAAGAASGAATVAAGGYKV , report its measured Allergenic potency (Prel) 50%.
*A* 0.4680
